system: MKN-45; test: Antiproliferative activity against human MKN45 cells assessed as decrease in cell viability after 48 hrs by MTT assay; assay type: functional, cell-based; settings: MKN-45, 48 h
pIC50: −log10 of the molar value.
Measure Name: pIC50

molecular_string=CN1CCN(c2ncnc3c2ncc(=O)n3Cc2ccccc2)CC1 result="< 4.19"
molecular_string=CCCSc1nc(N2CCSCC2)c2ncc(=O)n(Cc3ccccc3)c2n1 result="< 4.19"

Recorded result, `CCCSc1nc(N2CCOCC2)c2ncc(=O)n(Cc3ccccc3)c2n1` , pIC50: < 4.19

====

Overview of reported IC50 across a group of compounds:
test system: NCI-H1650; experiment: Antiproliferative activity against human NCI-H1650 cells assessed as decrease in cell viability after 48 hrs by MTT assay; assay type: functional, cell-based; details: NCI-H1650, 48 h

molecular_string=CCCSc1nc(N2CCN(Cc3ccccc3)CC2)c2ncc(=O)n(Cc3ccccc3)c2n1 measure_name=IC50 result="> 64 µM"

Documented IC50 of `Cc1nc(N2CCN(C)CC2)c2ncc(=O)n(Cc3ccccc3)c2n1` : > 64 µM

Short answer for `CCCSc1nc(N2CCSCC2)c2ncc(=O)n(Cc3ccccc3)c2n1` : IC50 was 54.8 µM

So, `CCCSc1nc(N2CCN(C)CC2)c2ncc(=O)n(Cc3ccccc3)c2n1` ? Its IC50 was 9.92 µM

Per the records, this compound ( `CCCSc1nc(NCc2ccccc2)c2ncc(=O)n(Cc3ccccc3)c2n1` ) has IC50 equal to > 64 µM

Entry `CCCSc1nc(N2CCOCC2)c2ncc(=O)n(Cc3ccccc3)c2n1` , IC50 reported as > 64 µM

Kindly note the recorded IC50 for `CCCNc1nc(SCCC)nc2c1ncc(=O)n2Cc1ccccc1` , which is > 64 µM
